Biological target: human plasma Kallikrein (Homo sapiens, UniProt P03952)
Construct: purchased Stratech, UK
Sequence (P03952 20-638): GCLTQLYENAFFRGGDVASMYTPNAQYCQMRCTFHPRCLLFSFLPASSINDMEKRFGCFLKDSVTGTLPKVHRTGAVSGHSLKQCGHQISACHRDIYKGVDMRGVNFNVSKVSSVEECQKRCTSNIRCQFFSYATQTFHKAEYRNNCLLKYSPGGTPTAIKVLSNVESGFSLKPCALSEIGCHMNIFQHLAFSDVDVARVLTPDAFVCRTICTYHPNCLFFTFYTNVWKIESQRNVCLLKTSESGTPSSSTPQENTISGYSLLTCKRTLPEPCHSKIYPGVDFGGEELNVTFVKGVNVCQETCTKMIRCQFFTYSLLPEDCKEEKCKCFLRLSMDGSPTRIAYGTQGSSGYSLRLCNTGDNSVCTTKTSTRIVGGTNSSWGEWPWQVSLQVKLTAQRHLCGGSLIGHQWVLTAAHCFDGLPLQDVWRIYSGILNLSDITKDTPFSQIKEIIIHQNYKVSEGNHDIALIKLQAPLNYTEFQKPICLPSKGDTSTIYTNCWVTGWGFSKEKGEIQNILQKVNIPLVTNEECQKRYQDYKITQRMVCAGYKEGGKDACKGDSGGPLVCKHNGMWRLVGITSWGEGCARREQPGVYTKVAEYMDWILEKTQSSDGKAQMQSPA
Assay: Functional enzyme inhibition assay with fluorogenic substrate Z-PheArg-AMC, human plasma Kallikrein
Type: biochemical
Conditions: Table 3c, D-Alanine scan in Loop2; read-out: Ki
Protocol: Functional enzyme assays were conducted in 10 mM Tris HCl, 150 mM NaCl, 10 mM MgCl2, 1 mM CaCl2) and 1 mg/mL BSA (all Sigma UK) pH7.4 at 25° C. in solid black 96 well plates. […] Release of AMC was measured using a Pherastar FS (BMG Labtech), excitation 360 nm, emission 460 nm. The rate of the linear phase of the reaction, typically 5 to 45 minutes, was calculated in MARS data analysis software (BMG labtech). […]
pKi: −log10 of the molar value. Numbered stars: 1 amine (or outer) side, 2 acyl side, 3 side chain; on linkers, the order of the positions; unused ones are H or OH. Bridge positions count the residues as written; N and C are the ends. Square brackets hold non-standard residues; d marks the D form. Peptide text beside a SMILES is read from it. TBMB = c1c(C[*:1])cc(C[*:3])cc1C[*:2]
Parameter threshold = 7. Response is Met when pKi meets or exceeds it, else Not met.

>  <Molecule>
CC(=O)N[C@H]1CSCc2cc3cc(c2)CSC[C@H](NC(=O)[C@H](CCCNC(=N)N)NC(=O)[C@H](Cc2ccc(O)cc2)NC(=O)[C@@H]2CCCN2C(=O)[C@H](Cc2ccccc2)NC(=O)[C@H](CO)NC1=O)C(=O)N[C@H](C)C(=O)N[C@@H](Cc1c[nH]cn1)C(=O)N[C@@H](CCC(N)=O)C(=O)N[C@@H](CC(=O)O)C(=O)N[C@@H](CC(C)C)C(=O)N[C@H](C(N)=O)CSC3 [Ac-(06-34-18) Phe2 Tyr4 D-Ala6] (Ac-CSFPYRC[dA]HQDLC-NH2; linker 1-7-13 via TBMB)

>  <Class name>
Not met

$$$$
>  <Molecule>
CC(=O)N[C@H]1CSCc2cc3cc(c2)CSC[C@H](NC(=O)[C@H](CCCNC(=N)N)NC(=O)[C@H](C)NC(=O)[C@@H]2CCCN2C(=O)[C@H](Cc2c[nH]c4ccccc24)NC(=O)[C@H](CO)NC1=O)C(=O)N[C@@H](CC(C)C)C(=O)N[C@@H](Cc1c[nH]cn1)C(=O)N[C@H](C)C(=O)N[C@@H](CC(=O)O)C(=O)N[C@@H](CC(C)C)C(=O)N[C@H](C(N)=O)CSC3 [Ac-(06-34-18) D-Ala8] (Ac-CSWPARCLH[dA]DLC-NH2; linker 1-7-13 via TBMB)

>  <Class name>
Met

$$$$
>  <Molecule>
CC(=O)N[C@H]1CSCc2cc3cc(c2)CSC[C@H](NC(=O)[C@H](CCCNC(=N)N)NC(=O)[C@H](Cc2ccc(O)cc2)NC(=O)[C@@H]2CCCN2C(=O)[C@H](Cc2ccccc2)NC(=O)[C@H](CO)NC1=O)C(=O)N[C@@H](CC(C)C)C(=O)N[C@@H](Cc1c[nH]cn1)C(=O)N[C@@H](CCC(N)=O)C(=O)N[C@H](C)C(=O)N[C@@H](CC(C)C)C(=O)N[C@H](C(N)=O)CSC3 [Ac-(06-34-18) Phe2 Tyr4 D-Ala9] (Ac-CSFPYRCLHQ[dA]LC-NH2; linker 1-7-13 via TBMB)

>  <Class name>
Met

$$$$
>  <Molecule>
CC(=O)N[C@H]1CSCc2cc3cc(c2)CSC[C@H](NC(=O)[C@H](CCCNC(=N)N)NC(=O)[C@H](Cc2ccc(O)cc2)NC(=O)[C@@H]2CCCN2C(=O)[C@H](Cc2ccccc2)NC(=O)[C@H](CO)NC1=O)C(=O)N[C@@H](CC(C)C)C(=O)N[C@@H](Cc1c[nH]cn1)C(=O)N[C@H](C)C(=O)N[C@@H](CC(=O)O)C(=O)N[C@@H](CC(C)C)C(=O)N[C@H](C(N)=O)CSC3 [Ac-(06-34-18) Phe2 Tyr4 D-Ala8] (Ac-CSFPYRCLH[dA]DLC-NH2; linker 1-7-13 via TBMB)

>  <Class name>
Not met

$$$$
>  <Molecule>
CC(=O)N[C@H]1CSCc2cc3cc(c2)CSC[C@H](NC(=O)[C@H](CCCNC(=N)N)NC(=O)[C@H](C)NC(=O)[C@@H]2CCCN2C(=O)[C@H](Cc2c[nH]c4ccccc24)NC(=O)[C@H](CO)NC1=O)C(=O)N[C@H](C)C(=O)N[C@@H](Cc1c[nH]cn1)C(=O)N[C@@H](CCC(N)=O)C(=O)N[C@@H](CC(=O)O)C(=O)N[C@@H](CC(C)C)C(=O)N[C@H](C(N)=O)CSC3 [Ac-(06-34-18) D-Ala6] (Ac-CSWPARC[dA]HQDLC-NH2; linker 1-7-13 via TBMB)

>  <Class name>
Not met

$$$$
>  <Molecule>
CC(=O)N[C@H]1CSCc2cc3cc(c2)CSC[C@H](NC(=O)[C@H](CCCNC(=N)N)NC(=O)[C@H](Cc2ccc(O)cc2)NC(=O)[C@@H]2CCCN2C(=O)[C@H](Cc2ccccc2)NC(=O)[C@H](CO)NC1=O)C(=O)N[C@@H](CC(C)C)C(=O)N[C@@H](Cc1c[nH]cn1)C(=O)N[C@@H](CCC(N)=O)C(=O)N[C@@H](CC(=O)O)C(=O)N[C@H](C)C(=O)N[C@H](C(N)=O)CSC3 [Ac-(06-34-18) Phe2 Tyr4 D-Ala10] (Ac-CSFPYRCLHQD[dA]C-NH2; linker 1-7-13 via TBMB)

>  <Class name>
Not met

$$$$

From: patent US10118947B2
